Recorded values, source PubChem BioAssay (NCI).

Test system: HT29 colon
PROTOCOL_DETAILS: NCI tumour cell line growth inhibition, 48 h; in the data active = GI50 below about 0.43 µM; inactive = the rest
Your reply should match one of these outcome classes. active, inactive

>  <MOLECULE>
C=C1C(=O)O[C@H]2[C@H]1CC/C(COC(=O)NCCc1c[nH]c3ccc(OC)cc13)=C\CC[C@@]1(C)O[C@@H]21

>  <ASSAY_TARGET>
HT29 colon

>  <GROUP_LABEL>
inactive

$$$$
>  <MOLECULE>
O=C(CCl)N1c2ccccc2Sc2ccc3ccccc3c21

>  <ASSAY_TARGET>
HT29 colon

>  <GROUP_LABEL>
inactive

$$$$

q: Recorded call for `c1cn2cc(-c3ccc4cn[nH]c4c3)nc(Nc3ccc(N4CCOCC4)cc3)c2n1` ?
a: inactive

q: In this assay, the call recorded for `Cc1cc(C)c(O)c(CN(C)Cc2cc(Cl)cc(Cl)c2O)c1` was what?
a: inactive

q: Status in this test for `Cn1cc(-c2cnc3ccc4ccc(CS(=O)(=O)NCc5ccccn5)cc4c(=O)c3c2)cn1` ?
a: inactive

q: Which outcome was assigned to `C=C1C(=O)O[C@H]2[C@H]1CC/C(COC(=O)CSCC(=O)OC/C1=C/CC[C@@]3(C)O[C@H]3[C@H]3OC(=O)C(=C)[C@@H]3CC1)=C\CC[C@@]1(C)O[C@@H]21` in this test?
a: inactive

q: Per the records of this test, what outcome belongs to COc1cccc2c1C(=O)c1c(O)c3c(c(O)c1C2=O)C[C@@](O)(C(=O)CO)C[C@@H]3OC1C[C@H](N)[C@H](O)[C@H](C)O1 (stereo partly drawn) ?
a: active

q: Status in this test for COc1ccc(Cl)cc1NC(=O)C(Br)C(Br)C(=O)O (stereo not drawn) ?
a: inactive

* * *

Listed here are compounds together with their documented TGI.
System: SK-MEL-5 melanoma
PROTOCOL_DETAILS: NCI tumour cell line growth inhibition, 48 h

Here is how some compounds turned out for TGI.
>  <COMPOUND>
O=C1C=C(Br)c2c(Br)sc(Br)c21

>  <VALUE_TYPE>
TGI

>  <ASSAY_VALUE>
31.4 µM

$$$$
>  <COMPOUND>
O=S1(=O)c2ccccc2C(=NO)c2ccccc21

>  <VALUE_TYPE>
TGI

>  <ASSAY_VALUE>
> 100 µM

$$$$
>  <COMPOUND>
Cc1ccc(N2CCc3c(C)c(C#N)c4nc5ccccc5n4c32)cc1

>  <VALUE_TYPE>
TGI

>  <ASSAY_VALUE>
> 100 µM

$$$$
>  <COMPOUND>
O=C(c1ccccc1)c1ccc2nc(-c3c(Cl)c(Cl)c(Cl)c(Cl)c3C(=O)N/N=C/c3ccccc3)[nH]c2c1

>  <VALUE_TYPE>
TGI

>  <ASSAY_VALUE>
33.4 µM

$$$$

q: Consider the compound `COc1ccc(/C=C/C(=O)Oc2cc(O)cc(O)c2)cc1` and give its measured TGI.
a: > 100 µM

q: Return reported TGI; argument: `C/C(=N\N=C(/[Se])N1CC2CCC(CC2)C1)c1ccccn1`
a: 0.433 µM

q: Data request, read-out TGI, for `O=c1[nH]cnc2[nH]ncc12`
a: > 5000 µM

q: Can you look up the measured TGI of `N#C[S-].[Nd+3].c1ccc(-c2ccccn2)nc1.c1ccc(-c2ccccn2)nc1.c1ccc(-c2ccccn2)nc1` for me?
a: 4.77 µM

q: Would you kindly share the measured TGI for `Cc1cc(NS(=O)(=O)c2ccc(NC(=O)c3cccc4c(Nc5ccc(S(=O)(=O)N=C(N)N)cc5)c5ccccc5nc34)cc2)no1` ?
a: > 100 µM

q: Data request, read-out TGI, for `Cc1cc(Cc2cc(C)cc(C(C)(C)C)c2O)c(O)c(C(C)(C)C)c1`
a: 22.4 µM

q: Item C1OC1CO[C@@H]1CO[C@H]2[C@@H]1OC[C@H]2OCC1CO1 (some centres not stated) has what recorded TGI?
a: > 100 µM

* * *

Tested on: PC-3 prostate
PROTOCOL_DETAILS: NCI tumour cell line growth inhibition, 48 h; in the data active means GI50 below about 0.43 µM; inactive means the rest
The categories you may choose from are 1 (active), 0 (inactive)

Solved entries:
>  <MOLECULE>
O=C(N/N=C/c1ccccc1O)C(=O)Nc1ccc(F)cc1

>  <GROUP_LABEL>
0

$$$$
>  <MOLECULE>
Cc1c2c[n+](C(C)C)ccc2c(C)c2c1[nH]c1ccccc12

>  <GROUP_LABEL>
0

$$$$
>  <MOLECULE>
S=C1Nc2ccc(Cl)cc2C2(c3ccccc3)N3CCN=C3NN12 (configuration not stated)

>  <GROUP_LABEL>
0

$$$$
>  <MOLECULE>
O=C(c1ccco1)c1c(C(F)(F)F)n([O-])c2ccccc2[n+]1=O

>  <GROUP_LABEL>
1

$$$$
>  <MOLECULE>
N#CCc1ncc(-c2ccc(C(F)(F)F)cc2)c(NC2CCCCCC2)n1

>  <GROUP_LABEL>
0

$$$$

q: Please share the test call associated with `O=C(Nc1ccc(Cl)cc1)c1cc(-c2ccc(Cl)cc2)c2sc(=O)[nH]c2n1` .
a: 0

q: Entry `c1ccc(-n2nnnc2-c2cccc3ccccc23)cc1` : call = ?
a: 0

q: State the result this test recorded for `COc1ccc2c(c1)C(=O)/C(=C/c1ncc([N+](=O)[O-])n1C)O2` .
a: 0

* * *

System: T-47D breast
PROTOCOL_DETAILS: NCI tumour cell line growth inhibition, 48 h
Measured log10 TGI, listed per entry.
Hi team, quick reminder: these entries are log10 of TGI (µM).

>  <MOLECULE>
COC(=O)[C@]12CC[C@@H](C)[C@H](C)[C@@H]1C1=CC[C@@H]3[C@@]4(C)C=C(O)C(=O)[C@@]5(C)COC(=C54)C[C@@]3(C)[C@]1(C)CC2

>  <log10 TGI>
1.32

$$$$
>  <MOLECULE>
C/C=C/CC(C)C(O)C1C(=O)NC(CC)C(=O)N(C)CC(=O)N(C)C(CC(C)C)C(=O)NC(C(C)C)C(=O)N(C)C(CC(C)C)C(=O)NC(C)C(=O)NC(C)C(=O)N(C)C(CC(C)C)C(=O)N(C)C(CC(C)C)C(=O)N(C)C(C(C)C)C(=O)N1C (stereo unspecified)

>  <log10 TGI>
0.73

$$$$
>  <MOLECULE>
CO[C@@H]1CC(=O)C2(CC(=O)O[C@@H]2/C=C(\C)CCC=C(C)C)C[C@@H]1O (stereo partly specified)

>  <log10 TGI>
0.10

$$$$
>  <MOLECULE>
CC(=O)OC1CC2(O)C3CCC4CC(O)CCC4(C)C3CCC2(C)C1C1=CC(=O)OC1 (stereo unspecified)

>  <log10 TGI>
-0.14

$$$$
>  <MOLECULE>
Cc1ccc2c(O)c(O)cc(NC(C)CCCN)c2n1 (stereo unspecified)

>  <log10 TGI>
1.58

$$$$

q: Need log10 TGI, item `O=C(c1ccco1)c1c(C(F)(F)F)n([O-])c2ccccc2[n+]1=O`
a: 1.47

q: Which log10 TGI is listed for `Nc1ccccc1N/C=C\C(=O)C(Cl)(Cl)Cl` ?
a: 1.63

q: Which log10 TGI is listed for `CCCCc1ccc(Nc2ncc3[nH]cnc3n2)cc1` ?
a: 1.79

q: // log10 TGI lookup, key: C=CC1CC12C(=O)C1OC2(C)C2C(=O)c3c(O)ccc(O)c3C(=O)C12 (stereo unspecified)
a: 1.15

q: Please look up its log10 TGI: `O=C(Cc1cccc(OC(F)(F)F)c1)Nc1ccc(CCCCc2nnc(NC(=O)Cc3ccccn3)s2)nn1`
a: 1.42

q: Which log10 TGI value belongs to `C=C(CC[C@@H](C(=O)O)[C@H]1[C@H](O)C[C@@]2(C)C3=CC[C@@H](C(=C)C)[C@](C)(CCC(=O)O)C3=CC[C@]12C)C(C)C` ?
a: 1.71

q: Requested read-out: log10 TGI. Entry: COc1cc(CC2c3cc(OC)c(OC)cc3CCN2C)c(Oc2cc3c(cc2OC)-c2c(O)c(OC)cc4c2C(C3)N(C)CC4)cc1OC (stereo unspecified)
a: 1.74

q: Quick one: log10 TGI for `c1cn2cc(-c3ccc4cn[nH]c4c3)nc(Nc3ccc(N4CCOCC4)cc3)c2n1` ?
a: 1.49

q: Which log10 TGI is listed for COc1cccc2c1C(=O)c1c(O)c3c(c(O)c1C2=O)C[C@@](O)(C(=O)CO)C[C@@H]3OC1C[C@H](N)[C@H](O)[C@H](C)O1 (stereo partly specified) ?
a: 0.03

q: Name the reported log10 TGI value associated with the molecule `O=C(N/N=C/c1ccc([N+](=O)[O-])cc1)c1ccc2nc(-c3ccc(Cl)cc3)[nH]c2c1`
a: 0.86

q: Entry `Cc1ccc(SC2=CC(=O)c3nc4ccccc4c4ccnc2c34)cc1` has what log10 TGI?
a: 1.67
